Assay: in vitro
Conditions: simulated gi fluid
Measured parameter: half-life

Compound | Measurement
C=C1NC(=O)[C@H](Cc2c[nH]c3ccccc23)NC(=O)[C@H](NC(=O)[C@H](CCCCN)NC(=O)[C@@H](N)C(C)C)CSC[C@@H](C(=O)N[C@H]2C(=O)N3CCC[C@H]3C(=O)NCC(=O)N[C@H](C(=O)N[C@@H](C)C(=O)N[C@@H](CC(N)=O)C(=O)N/C(=C\C)C(=O)NCC(=O)N[C@@H]3CSC[C@@H]4NC(=O)[C@H](Cc5ccc(O)cc5)NC(=O)[C@@H](CS/C=C\NC4=O)NC(=O)[C@H](CC(N)=O)NC(=O)[C@H](Cc4ccccc4)NC3=O)CS[C@H]2C)NC(=O)[C@H](CC(C)C)NC1=O [F1V R13N] | > 24 h

----------
Tested on: Clostridium difficile UNT103-1
Assay: Non-cannulated Syrian hamster C. difficile infection model, oral gavage
Type: in vivo, Golden Syrian hamsters
Conditions: oral gavage; first value of A/B cell; limit of detection 0.8
Measured parameter: Toxin A level at Day-22 (ng/mL)

Compound | Tested target | Measured parameter | Measurement unit | Measurement
C=C1NC(=O)[C@H](Cc2c[nH]c3ccccc23)NC(=O)[C@H](NC(=O)[C@H](CCCCN)NC(=O)[C@@H](N)[C@@H](C)CC)CSC[C@@H](C(=O)N[C@H]2C(=O)N3CCC[C@H]3C(=O)NCC(=O)N[C@H](C(=O)N[C@@H](C)C(=O)N[C@@H](C)C(=O)NC(=CC)C(=O)NCC(=O)N[C@@H]3CSC[C@@H]4NC(=O)[C@H](Cc5ccc(O)cc5)NC(=O)[C@@H](CS/C=C\NC4=O)NC(=O)[C@H](CC(N)=O)NC(=O)[C@H](Cc4ccccc4)NC3=O)CS[C@H]2C)NC(=O)[C@H](CC(C)C)NC1=O [F1I R13A] | Clostridium difficile UNT103-1 | Toxin A level at Day-22 | ng/mL | 147
CN[C@H](CC(C)C)C(=O)N[C@H]1C(=O)N[C@@H](CC(N)=O)C(=O)N[C@H]2C(=O)N[C@H]3C(=O)N[C@H](C(=O)N[C@H](C(=O)O)c4cc(O)cc(O)c4-c4cc3ccc4O)[C@H](O)c3ccc(c(Cl)c3)Oc3cc2cc(c3O[C@@H]2O[C@H](CO)[C@@H](O)[C@H](O)[C@H]2O[C@H]2C[C@](C)(N)[C@H](O)[C@H](C)O2)Oc2ccc(cc2Cl)[C@H]1O [Vancomycin] | Clostridium difficile UNT103-1 | Toxin A level at Day-22 | ng/mL | 84.2
C=C1NC(=O)[C@H](Cc2c[nH]c3ccccc23)NC(=O)[C@H](NC(=O)[C@H](CCCCN)NC(=O)[C@@H](N)[C@@H](C)CC)CSC[C@@H](C(=O)N[C@H]2C(=O)N3CCC[C@H]3C(=O)NCC(=O)N[C@H](C(=O)N[C@@H](C)C(=O)N[C@@H](CC(N)=O)C(=O)NC(=CC)C(=O)NCC(=O)N[C@@H]3CSC[C@@H]4NC(=O)[C@H](Cc5ccccc5)NC(=O)[C@@H](CS/C=C\NC4=O)NC(=O)[C@H](CC(N)=O)NC(=O)[C@H](Cc4ccccc4)NC3=O)CS[C@H]2C)NC(=O)[C@H](CC(C)C)NC1=O [F1I R13N Y20F] | Clostridium difficile UNT103-1 | Toxin A level at Day-22 | ng/mL | 5.1

----------
Details: simulated gi fluid, FaSSIF + 1% pancreatin + 3 μg/ml trypsin + 3 μg/ml chymotrypsin half-life

Compound | half-life [h]
C=C1NC(=O)[C@H](Cc2c[nH]c3ccccc23)NC(=O)[C@H](NC(=O)[C@H](CCCCN)NC(=O)[C@H](C)N)CSC[C@@H](C(=O)N[C@H]2C(=O)N3CCC[C@H]3C(=O)NCC(=O)N[C@H](C(=O)N[C@@H](C)C(=O)NCC(=O)NC(=CC)C(=O)NCC(=O)N[C@@H]3CSC[C@@H]4NC(=O)[C@H](Cc5ccc(O)cc5)NC(=O)[C@@H](CS/C=C\NC4=O)NC(=O)[C@H](CC(N)=O)NC(=O)[C@H](Cc4ccccc4)NC3=O)CS[C@H]2C)NC(=O)[C@H](CC(C)C)NC1=O [F1A R13G] | 2.07

----------
A collection of compounds and their measured half-life
Details: simulated gi fluid, FaSSIF + 1% pancreatin + 3 μg/ml trypsin + 3 μg/ml chymotrypsin half-life

Compound | half-life
C=C1NC(=O)[C@H](Cc2c[nH]c3ccccc23)NC(=O)[C@H](NC(=O)[C@H](CCCCN)NC(=O)[C@@H](N)[C@@H](C)CC)CSC[C@@H](C(=O)N[C@H]2C(=O)N3CCC[C@H]3C(=O)NCC(=O)N[C@H](C(=O)N[C@@H](C)C(=O)N[C@@H](C)C(=O)NC(=CC)C(=O)NCC(=O)N[C@@H]3CSC[C@@H]4NC(=O)[C@H](Cc5ccc(O)cc5)NC(=O)[C@@H](CS/C=C\NC4=O)NC(=O)[C@H](CC(N)=O)NC(=O)[C@H](Cc4ccccc4)NC3=O)CS[C@H]2C)NC(=O)[C@H](CC(C)C)NC1=O [F1I R13A] | > 12 h
C=C1NC(=O)[C@H](Cc2c[nH]c3ccccc23)NC(=O)[C@H](NC(=O)[C@H](CCCCN)NC(=O)[C@@H](N)CC(C)C)CSC[C@@H](C(=O)N[C@H]2C(=O)N3CCC[C@H]3C(=O)NCC(=O)N[C@H](C(=O)N[C@@H](C)C(=O)N[C@@H](C)C(=O)NC(=CC)C(=O)NCC(=O)N[C@@H]3CSC[C@@H]4NC(=O)[C@H](Cc5ccc(O)cc5)NC(=O)[C@@H](CS/C=C\NC4=O)NC(=O)[C@H](CC(N)=O)NC(=O)[C@H](Cc4ccccc4)NC3=O)CS[C@H]2C)NC(=O)[C@H](CC(C)C)NC1=O [F1L R13A] | > 12 h

----------
Details: simulated gi fluid, FaSSIF + 1% pancreatin + 3 μg/ml trypsin + 3 μg/ml chymotrypsin half-life
A collection of compounds and their measured half-life

Compound | Readout qualifier | half-life [min]
C=C1NC(=O)[C@H](Cc2c[nH]c3ccccc23)NC(=O)[C@H](NC(=O)[C@H](CCCCN)NC(=O)[C@@H](N)C(C)C)CSC[C@@H](C(=O)N[C@H]2C(=O)N3CCC[C@H]3C(=O)NCC(=O)N[C@H](C(=O)N[C@@H](C)C(=O)N[C@@H](CC(N)=O)C(=O)N/C(=C\C)C(=O)NCC(=O)N[C@@H]3CSC[C@@H]4NC(=O)[C@H](Cc5ccc(O)cc5)NC(=O)[C@@H](CS/C=C\NC4=O)NC(=O)[C@H](CC(N)=O)NC(=O)[C@H](Cc4ccccc4)NC3=O)CS[C@H]2C)NC(=O)[C@H](CC(C)C)NC1=O [F1V R13N] | > | 720
C=C1NC(=O)[C@H](Cc2c[nH]c3ccccc23)NC(=O)[C@H](NC(=O)[C@H](CCCCN)NC(=O)[C@@H](N)[C@@H](C)O)CSC[C@@H](C(=O)N[C@H]2C(=O)N3CCC[C@H]3C(=O)NCC(=O)N[C@H](C(=O)N[C@@H](C)C(=O)NCC(=O)NC(=CC)C(=O)NCC(=O)N[C@@H]3CSC[C@@H]4NC(=O)[C@H](Cc5ccc(O)cc5)NC(=O)[C@@H](CS/C=C\NC4=O)NC(=O)[C@H](CC(N)=O)NC(=O)[C@H](Cc4ccccc4)NC3=O)CS[C@H]2C)NC(=O)[C@H](CC(C)C)NC1=O [F1T R13G] | = | 114
C=C1NC(=O)[C@H](Cc2c[nH]c3ccccc23)NC(=O)[C@H](NC(=O)[C@H](CCCCN)NC(=O)[C@@H](N)[C@@H](C)CC)CSC[C@@H](C(=O)N[C@H]2C(=O)N3CCC[C@H]3C(=O)NCC(=O)N[C@H](C(=O)N[C@@H](C)C(=O)N[C@@H](CC(N)=O)C(=O)NC(=CC)C(=O)NCC(=O)N[C@@H]3CSC[C@@H]4NC(=O)[C@H](Cc5ccccc5)NC(=O)[C@@H](CS/C=C\NC4=O)NC(=O)[C@H](CC(N)=O)NC(=O)[C@H](Cc4ccccc4)NC3=O)CS[C@H]2C)NC(=O)[C@H](CC(C)C)NC1=O [F1I R13N Y20F] | > | 720
C=C1NC(=O)[C@H](Cc2c[nH]c3ccccc23)NC(=O)[C@H](NC(=O)[C@H](CCCCN)NC(=O)[C@@H](N)[C@@H](C)CC)CSC[C@@H](C(=O)N[C@H]2C(=O)N3CCC[C@H]3C(=O)NCC(=O)N[C@H](C(=O)N[C@@H](C)C(=O)N[C@@H](CC(N)=O)C(=O)NC(=CC)C(=O)NCC(=O)N[C@@H]3CSC[C@@H]4NC(=O)[C@H](Cc5ccc(O)cc5)NC(=O)[C@@H](CS/C=C\NC4=O)NC(=O)[C@H](CC(N)=O)NC(=O)[C@H](Cc4ccccc4)NC3=O)CS[C@H]2C)NC(=O)[C@H](CC(C)C)NC1=O [F1I R13N] | > | 720
C=C1NC(=O)[C@H](Cc2c[nH]c3ccccc23)NC(=O)[C@H](NC(=O)[C@H](CCCCN)NC(=O)[C@H](C)N)CSC[C@@H](C(=O)N[C@H]2C(=O)N3CCC[C@H]3C(=O)NCC(=O)N[C@H](C(=O)N[C@@H](C)C(=O)N[C@@H](C)C(=O)NC(=CC)C(=O)NCC(=O)N[C@@H]3CSC[C@@H]4NC(=O)[C@H](Cc5ccc(O)cc5)NC(=O)[C@@H](CS/C=C\NC4=O)NC(=O)[C@H](CC(N)=O)NC(=O)[C@H](Cc4ccccc4)NC3=O)CS[C@H]2C)NC(=O)[C@H](CC(C)C)NC1=O [F1A R13A] | = | 130
